So I've got a bunch of compounds here, and I need their pest or weed control at 200 ppm values.
System: Alternaria solani
Assay: Example A1: Alternaria solani / tomato / leaf disc (early blight)
Format: in vivo
Details: foliar, tomato leaf disks, compared to untreated control

>>> print(df.to_string())
                                   compound  reportedmeasurement
0  Cc1sc(N(C(=O)C2CCOCC2)c2cc(F)nc(F)c2)nc1C(=O)NC1CCC1(C)C (centres unmarked)                ≥ 80%
1  Cc1sc(N(C(=O)C2CCCO2)c2cc(F)nc(F)c2)nc1C(=O)NC1CCC1(C)C (centres unmarked)                ≥ 80%
2  COC(C)C(=O)N(c1cc(F)nc(F)c1)c1nc(C(=O)NC2CCC2(C)C)c(C)s1 (centres unmarked)                ≥ 80%
3  Cc1sc(N(C(=O)C2CCOC2)c2cc(F)nc(F)c2)nc1C(=O)NC1CCC1(C)C (centres unmarked)                ≥ 80%

Q: Kindly indicate its recorded pest or weed control at 200 ppm. Item: Cc1sc(N(C(=O)C2COC2)c2cc(F)nc(F)c2)nc1C(=O)NC1CCC1(C)C (centres unmarked)
A: ≥ 80%
